The reported measurements were obtained from ChEMBL document CHEMBL3085664.

assay: Plasma concentration in mouse at 10 mg/kg, ip after 0.25 hrs; format: ADME, organism-based; parameters: dose 10 mg/kg, route intraperitoneal
measurement_kind: concentration at 0.25 h (nM)
Give just the numeric value; nM need not be written.

Record Cc1c(P(=S)(c2ccccc2)c2ccccc2)n2ccccc2[n+]1C/C=C/c1ccccc1.[Br-] . Reported concentration at 0.25 h: 1320

###

Documented remaining at 1 h across a set of compounds
assay: Metabolic stability in mouse liver microsomes assessed as compound remaining after 60 mins in absence NADPH; assay type: ADME, Microsome; details: read-out: Stability
Don't forget the unit after the number, please.

Please review the following examples before continuing.
O=C(NCc1ccc(F)cc1)N1CCN2C(=O)OC(c3ccccc3)(c3ccccc3)C2C1 (stereo not drawn) :: 101%
CCC(C)(CCN1CCOCC1)N(Cc1cc2ccccc2n(C)c1=O)C(=O)C1CCCCC1 (stereo not drawn) :: 94%

Please examine the following record next.
Record Cc1c(P(=S)(c2ccccc2)c2ccccc2)n2ccccc2[n+]1C/C=C/c1ccccc1.[Br-] . Reported remaining at 1 h: 102%
